Quick note: these are pKd numbers for system: Mitogen-activated protein kinase kinase kinase kinase 4 (Homo sapiens)
Sequence (O95819 whole entry): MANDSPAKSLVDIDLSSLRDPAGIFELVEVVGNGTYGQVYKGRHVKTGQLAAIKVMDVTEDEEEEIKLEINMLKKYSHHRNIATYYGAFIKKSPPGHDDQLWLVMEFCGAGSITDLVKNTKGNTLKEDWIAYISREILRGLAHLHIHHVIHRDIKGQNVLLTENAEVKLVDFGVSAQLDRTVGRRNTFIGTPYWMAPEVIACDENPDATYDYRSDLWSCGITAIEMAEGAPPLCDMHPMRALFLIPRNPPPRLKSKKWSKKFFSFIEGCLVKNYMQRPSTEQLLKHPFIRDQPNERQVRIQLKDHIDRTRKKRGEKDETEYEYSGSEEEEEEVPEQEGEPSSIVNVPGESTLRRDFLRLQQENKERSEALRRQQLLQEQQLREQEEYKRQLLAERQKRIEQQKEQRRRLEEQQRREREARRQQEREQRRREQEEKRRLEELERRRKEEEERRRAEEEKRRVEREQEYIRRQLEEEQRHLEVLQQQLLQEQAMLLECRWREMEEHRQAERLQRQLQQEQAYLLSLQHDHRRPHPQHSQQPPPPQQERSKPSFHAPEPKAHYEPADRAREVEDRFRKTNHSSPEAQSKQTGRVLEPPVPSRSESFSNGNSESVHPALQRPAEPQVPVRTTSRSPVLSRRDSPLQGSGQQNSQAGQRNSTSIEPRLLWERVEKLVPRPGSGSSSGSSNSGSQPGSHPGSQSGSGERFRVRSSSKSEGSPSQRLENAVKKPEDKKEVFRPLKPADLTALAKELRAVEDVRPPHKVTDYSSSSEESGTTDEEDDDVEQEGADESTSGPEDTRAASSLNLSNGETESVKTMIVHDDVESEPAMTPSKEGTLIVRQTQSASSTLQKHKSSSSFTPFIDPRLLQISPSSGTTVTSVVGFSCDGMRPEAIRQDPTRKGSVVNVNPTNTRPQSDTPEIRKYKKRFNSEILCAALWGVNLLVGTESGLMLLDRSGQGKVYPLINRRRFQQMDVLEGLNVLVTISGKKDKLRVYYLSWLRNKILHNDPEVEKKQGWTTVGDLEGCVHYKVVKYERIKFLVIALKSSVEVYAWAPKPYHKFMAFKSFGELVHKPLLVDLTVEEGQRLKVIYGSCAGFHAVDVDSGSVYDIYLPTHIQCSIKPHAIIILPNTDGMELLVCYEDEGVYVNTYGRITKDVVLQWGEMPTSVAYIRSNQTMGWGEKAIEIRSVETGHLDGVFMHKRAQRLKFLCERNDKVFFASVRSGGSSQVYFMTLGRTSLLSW
pKd: −log10 of the molar value.

Example entries and their recorded answers appear below.
>  <itemSmiles>
COCC(=O)NC/C=C/c1ccc2ncnc(Nc3ccc(Oc4ccc(C)nc4)c(C)c3)c2c1

>  <pKd>
< 5.00

$$$$
>  <itemSmiles>
Oc1ccc(-c2nc(-c3ccncc3)c(-c3ccc(F)cc3)[nH]2)cc1

>  <pKd>
< 5.00

$$$$

Query compound follows.
QUERY: Missing value: pKd, Mitogen-activated protein kinase kinase kinase kinase 4 (Homo sapiens), entry NC(=O)c1ccc(-c2nc(-c3ccc4c(c3)OCO4)c(-c3ccccn3)[nH]2)cc1 . Fill in?
RESULT: < 5.00

----------
Recorded pKd by entry
- systemName: Tyrosine-protein kinase Lck (Homo sapiens)
- Sequence (P06239 whole entry): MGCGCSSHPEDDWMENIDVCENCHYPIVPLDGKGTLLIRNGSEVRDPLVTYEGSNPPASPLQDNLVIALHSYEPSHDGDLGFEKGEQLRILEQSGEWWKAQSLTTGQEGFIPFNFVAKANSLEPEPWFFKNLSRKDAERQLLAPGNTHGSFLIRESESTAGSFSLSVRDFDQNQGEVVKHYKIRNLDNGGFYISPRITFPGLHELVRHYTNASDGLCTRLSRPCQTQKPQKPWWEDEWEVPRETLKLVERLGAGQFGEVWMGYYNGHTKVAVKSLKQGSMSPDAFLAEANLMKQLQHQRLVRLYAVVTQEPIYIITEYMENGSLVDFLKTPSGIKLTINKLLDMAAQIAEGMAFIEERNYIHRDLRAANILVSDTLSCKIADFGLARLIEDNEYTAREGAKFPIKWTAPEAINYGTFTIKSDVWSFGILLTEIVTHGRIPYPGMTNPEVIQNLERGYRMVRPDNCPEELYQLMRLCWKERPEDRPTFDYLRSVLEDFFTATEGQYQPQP
pKd: −log10 of the molar value.

QUERY: Missing value: pKd, Tyrosine-protein kinase Lck (Homo sapiens), entry NC(=O)c1ccc(-c2nc(-c3ccc4c(c3)OCO4)c(-c3ccccn3)[nH]2)cc1 [SB-431542] . Fill in?
RESULT: < 5.00

QUERY: Missing value: pKd, Tyrosine-protein kinase Lck (Homo sapiens), entry Oc1ccc(-c2nc(-c3ccncc3)c(-c3ccc(F)cc3)[nH]2)cc1 [SB-202190] . Fill in?
RESULT: < 5.00

QUERY: Missing value: pKd, Tyrosine-protein kinase Lck (Homo sapiens), entry COCC(=O)NC/C=C/c1ccc2ncnc(Nc3ccc(Oc4ccc(C)nc4)c(C)c3)c2c1 [CP-724714] . Fill in?
RESULT: < 5.00

----------
Recorded pKd by entry
- systemName: Serine/threonine-protein kinase SIK2 (Homo sapiens)
pKd: −log10 of the molar value.

Example entries and their recorded answers appear below.
>  <itemSmiles>
COCC(=O)NC/C=C/c1ccc2ncnc(Nc3ccc(Oc4ccc(C)nc4)c(C)c3)c2c1

>  <pKd>
< 5.00

$$$$
>  <itemSmiles>
NC(=O)c1ccc(-c2nc(-c3ccc4c(c3)OCO4)c(-c3ccccn3)[nH]2)cc1

>  <pKd>
< 5.00

$$$$

Query compound follows.
QUERY: Missing value: pKd, Serine/threonine-protein kinase SIK2 (Homo sapiens), entry Oc1ccc(-c2nc(-c3ccncc3)c(-c3ccc(F)cc3)[nH]2)cc1 . Fill in?
RESULT: < 5.00

----------
Quick note: these are pKd numbers for system: Dual specificity testis-specific protein kinase 1 (Homo sapiens)
pKd: −log10 of the molar value.

Example entries and their recorded answers appear below.
>  <itemSmiles>
CCOc1cc2ncc(C#N)c(Nc3ccc(F)c(Cl)c3)c2cc1NC(=O)/C=C/CN(C)C

>  <pKd>
< 5.00

$$$$
>  <itemSmiles>
Nc1nc(Nc2ccc(S(N)(=O)=O)cc2)nn1C(=O)c1c(F)cccc1F

>  <pKd>
5.51

$$$$
>  <itemSmiles>
Oc1ccc(-c2nc(-c3ccncc3)c(-c3ccc(F)cc3)[nH]2)cc1

>  <pKd>
< 5.00

$$$$

Query compound follows.
QUERY: Missing value: pKd, Dual specificity testis-specific protein kinase 1 (Homo sapiens), entry COCC(=O)NC/C=C/c1ccc2ncnc(Nc3ccc(Oc4ccc(C)nc4)c(C)c3)c2c1 . Fill in?
RESULT: < 5.00

----------
- systemName: UniProt O15530
- Sequence (O15530 whole entry): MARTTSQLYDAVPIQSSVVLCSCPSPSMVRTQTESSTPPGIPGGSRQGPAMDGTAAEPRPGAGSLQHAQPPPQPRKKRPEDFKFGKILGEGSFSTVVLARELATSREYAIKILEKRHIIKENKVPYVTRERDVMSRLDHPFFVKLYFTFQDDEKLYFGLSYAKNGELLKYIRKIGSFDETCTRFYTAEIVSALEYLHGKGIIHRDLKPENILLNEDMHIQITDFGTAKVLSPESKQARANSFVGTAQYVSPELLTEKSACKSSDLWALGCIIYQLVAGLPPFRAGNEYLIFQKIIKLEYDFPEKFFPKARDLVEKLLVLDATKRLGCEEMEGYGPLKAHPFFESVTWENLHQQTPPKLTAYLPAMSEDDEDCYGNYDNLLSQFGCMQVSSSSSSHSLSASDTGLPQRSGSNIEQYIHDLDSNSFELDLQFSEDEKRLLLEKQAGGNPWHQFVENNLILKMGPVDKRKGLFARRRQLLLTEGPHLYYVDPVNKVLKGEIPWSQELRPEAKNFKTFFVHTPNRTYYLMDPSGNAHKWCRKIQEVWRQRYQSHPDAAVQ
measurementLabel: Kd

Example entries and their recorded answers appear below.
>  <compound>
CCOc1cc2ncc(C#N)c(Nc3ccc(F)c(Cl)c3)c2cc1NC(=O)/C=C/CN(C)C [PELITINIB]

>  <measurementLabel>
Kd

>  <testValue>
> 10 µM

$$$$
>  <compound>
Oc1ccc(-c2nc(-c3ccncc3)c(-c3ccc(F)cc3)[nH]2)cc1 [SB-202190]

>  <measurementLabel>
Kd

>  <testValue>
> 10 µM

$$$$
>  <compound>
COCC(=O)NC/C=C/c1ccc2ncnc(Nc3ccc(Oc4ccc(C)nc4)c(C)c3)c2c1 [CP-724714]

>  <measurementLabel>
Kd

>  <testValue>
> 10 µM

$$$$
>  <compound>
Nc1nc(Nc2ccc(S(N)(=O)=O)cc2)nn1C(=O)c1c(F)cccc1F [JNJ-7706621]

>  <measurementLabel>
Kd

>  <testValue>
3.1 µM

$$$$

QUERY: Reported Kd, compound NC(=O)c1ccc(-c2nc(-c3ccc4c(c3)OCO4)c(-c3ccccn3)[nH]2)cc1 [SB-431542] : ____
RESULT: > 10 µM

----------
Recorded Kd by entry
- systemName: Protein kinase C delta type (Homo sapiens, UniProt Q05655)
- Sequence (Q05655 whole entry): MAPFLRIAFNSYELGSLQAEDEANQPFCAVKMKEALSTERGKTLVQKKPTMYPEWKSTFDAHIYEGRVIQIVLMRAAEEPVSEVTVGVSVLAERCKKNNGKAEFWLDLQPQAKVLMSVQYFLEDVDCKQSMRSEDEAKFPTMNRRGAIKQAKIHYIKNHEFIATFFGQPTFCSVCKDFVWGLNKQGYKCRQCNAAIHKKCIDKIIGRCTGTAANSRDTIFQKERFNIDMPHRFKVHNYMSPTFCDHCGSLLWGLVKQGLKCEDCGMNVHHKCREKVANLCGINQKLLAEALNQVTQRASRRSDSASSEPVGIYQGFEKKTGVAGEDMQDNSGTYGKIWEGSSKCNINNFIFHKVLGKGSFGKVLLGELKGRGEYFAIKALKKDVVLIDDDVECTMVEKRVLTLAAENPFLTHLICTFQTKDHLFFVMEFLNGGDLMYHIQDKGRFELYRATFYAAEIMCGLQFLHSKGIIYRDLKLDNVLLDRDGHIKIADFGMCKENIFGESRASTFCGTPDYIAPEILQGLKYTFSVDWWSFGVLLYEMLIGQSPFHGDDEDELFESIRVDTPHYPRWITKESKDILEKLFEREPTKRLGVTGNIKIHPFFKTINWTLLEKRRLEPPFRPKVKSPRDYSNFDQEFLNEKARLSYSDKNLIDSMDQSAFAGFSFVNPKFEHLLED

Example entries and their recorded answers appear below.
>  <compound>
COCC(=O)NC/C=C/c1ccc2ncnc(Nc3ccc(Oc4ccc(C)nc4)c(C)c3)c2c1 [CP-724714]

>  <Kd>
> 10 µM

$$$$
>  <compound>
Oc1ccc(-c2nc(-c3ccncc3)c(-c3ccc(F)cc3)[nH]2)cc1 [SB-202190]

>  <Kd>
> 10 µM

$$$$
>  <compound>
Nc1nc(Nc2ccc(S(N)(=O)=O)cc2)nn1C(=O)c1c(F)cccc1F [JNJ-7706621]

>  <Kd>
4.5 µM

$$$$

Query compound follows.
QUERY: Reported Kd, compound NC(=O)c1ccc(-c2nc(-c3ccc4c(c3)OCO4)c(-c3ccccn3)[nH]2)cc1 [SB-431542] : ____
RESULT: > 10 µM

----------
- systemName: Serine/threonine-protein kinase MRCK gamma (Homo sapiens)
- Sequence (Q6DT37 whole entry): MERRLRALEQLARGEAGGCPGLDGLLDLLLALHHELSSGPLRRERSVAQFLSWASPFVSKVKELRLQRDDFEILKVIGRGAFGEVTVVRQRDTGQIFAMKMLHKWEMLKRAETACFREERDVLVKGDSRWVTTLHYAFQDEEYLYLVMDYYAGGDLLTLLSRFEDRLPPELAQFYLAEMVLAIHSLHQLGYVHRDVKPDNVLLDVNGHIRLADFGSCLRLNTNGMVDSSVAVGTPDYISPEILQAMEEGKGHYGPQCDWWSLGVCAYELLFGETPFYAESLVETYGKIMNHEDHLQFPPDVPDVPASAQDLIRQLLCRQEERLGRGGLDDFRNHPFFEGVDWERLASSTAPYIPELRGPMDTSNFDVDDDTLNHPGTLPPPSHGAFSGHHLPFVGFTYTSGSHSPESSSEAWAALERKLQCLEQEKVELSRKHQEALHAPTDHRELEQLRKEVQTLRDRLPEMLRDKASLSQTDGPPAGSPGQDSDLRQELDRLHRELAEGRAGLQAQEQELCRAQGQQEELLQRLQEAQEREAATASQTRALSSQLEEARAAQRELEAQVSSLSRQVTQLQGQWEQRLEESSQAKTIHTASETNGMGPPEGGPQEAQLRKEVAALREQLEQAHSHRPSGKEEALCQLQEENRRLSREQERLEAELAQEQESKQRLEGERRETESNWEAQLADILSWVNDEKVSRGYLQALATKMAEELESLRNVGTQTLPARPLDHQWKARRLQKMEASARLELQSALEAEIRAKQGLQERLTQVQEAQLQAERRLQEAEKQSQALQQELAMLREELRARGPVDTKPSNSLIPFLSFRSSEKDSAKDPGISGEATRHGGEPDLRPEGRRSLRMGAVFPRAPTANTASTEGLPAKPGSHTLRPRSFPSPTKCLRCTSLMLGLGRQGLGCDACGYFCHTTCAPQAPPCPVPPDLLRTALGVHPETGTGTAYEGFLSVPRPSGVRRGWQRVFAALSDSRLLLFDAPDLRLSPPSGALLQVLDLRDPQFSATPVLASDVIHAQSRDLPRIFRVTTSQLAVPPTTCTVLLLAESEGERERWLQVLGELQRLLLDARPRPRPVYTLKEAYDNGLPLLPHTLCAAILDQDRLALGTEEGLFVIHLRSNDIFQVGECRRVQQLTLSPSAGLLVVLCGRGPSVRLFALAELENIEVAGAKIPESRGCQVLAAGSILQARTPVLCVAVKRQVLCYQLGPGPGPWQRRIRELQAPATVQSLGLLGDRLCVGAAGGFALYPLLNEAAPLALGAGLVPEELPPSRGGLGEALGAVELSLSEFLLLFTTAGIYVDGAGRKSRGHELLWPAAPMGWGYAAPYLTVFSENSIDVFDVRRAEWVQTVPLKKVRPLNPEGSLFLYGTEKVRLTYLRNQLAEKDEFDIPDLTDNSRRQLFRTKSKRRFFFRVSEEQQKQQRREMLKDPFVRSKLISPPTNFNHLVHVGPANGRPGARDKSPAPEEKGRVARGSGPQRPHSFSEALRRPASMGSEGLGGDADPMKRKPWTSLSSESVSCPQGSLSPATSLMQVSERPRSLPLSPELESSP
pKd: −log10 of the molar value.
Recorded pKd by entry

Example entries and their recorded answers appear below.
>  <molecule>
COCC(=O)NC/C=C/c1ccc2ncnc(Nc3ccc(Oc4ccc(C)nc4)c(C)c3)c2c1 [CP-724714]

>  <pKd>
< 5.00

$$$$
>  <molecule>
Nc1nc(Nc2ccc(S(N)(=O)=O)cc2)nn1C(=O)c1c(F)cccc1F [JNJ-7706621]

>  <pKd>
< 5.00

$$$$
>  <molecule>
NC(=O)c1ccc(-c2nc(-c3ccc4c(c3)OCO4)c(-c3ccccn3)[nH]2)cc1 [SB-431542]

>  <pKd>
< 5.00

$$$$

QUERY: Reported pKd, molecule Oc1ccc(-c2nc(-c3ccncc3)c(-c3ccc(F)cc3)[nH]2)cc1 [SB-202190] : ____
RESULT: 6.19

QUERY: Reported pKd, molecule CCOc1cc2ncc(C#N)c(Nc3ccc(F)c(Cl)c3)c2cc1NC(=O)/C=C/CN(C)C [PELITINIB] : ____
RESULT: < 5.00

----------
Quick note: these are Kd numbers for system: Casein kinase I isoform gamma-1 (Homo sapiens)

QUERY: Missing value: Kd, Casein kinase I isoform gamma-1 (Homo sapiens), entry CCOc1cc2ncc(C#N)c(Nc3ccc(F)c(Cl)c3)c2cc1NC(=O)/C=C/CN(C)C [PELITINIB] . Fill in?
RESULT: > 10 µM

QUERY: Missing value: Kd, Casein kinase I isoform gamma-1 (Homo sapiens), entry COCC(=O)NC/C=C/c1ccc2ncnc(Nc3ccc(Oc4ccc(C)nc4)c(C)c3)c2c1 [CP-724714] . Fill in?
RESULT: > 10 µM

QUERY: Missing value: Kd, Casein kinase I isoform gamma-1 (Homo sapiens), entry Oc1ccc(-c2nc(-c3ccncc3)c(-c3ccc(F)cc3)[nH]2)cc1 [SB-202190] . Fill in?
RESULT: > 10 µM

----------
Quick note: these are pKd numbers for system: Activated CDC42 kinase 1 (Homo sapiens)
Sequence (Q07912 whole entry): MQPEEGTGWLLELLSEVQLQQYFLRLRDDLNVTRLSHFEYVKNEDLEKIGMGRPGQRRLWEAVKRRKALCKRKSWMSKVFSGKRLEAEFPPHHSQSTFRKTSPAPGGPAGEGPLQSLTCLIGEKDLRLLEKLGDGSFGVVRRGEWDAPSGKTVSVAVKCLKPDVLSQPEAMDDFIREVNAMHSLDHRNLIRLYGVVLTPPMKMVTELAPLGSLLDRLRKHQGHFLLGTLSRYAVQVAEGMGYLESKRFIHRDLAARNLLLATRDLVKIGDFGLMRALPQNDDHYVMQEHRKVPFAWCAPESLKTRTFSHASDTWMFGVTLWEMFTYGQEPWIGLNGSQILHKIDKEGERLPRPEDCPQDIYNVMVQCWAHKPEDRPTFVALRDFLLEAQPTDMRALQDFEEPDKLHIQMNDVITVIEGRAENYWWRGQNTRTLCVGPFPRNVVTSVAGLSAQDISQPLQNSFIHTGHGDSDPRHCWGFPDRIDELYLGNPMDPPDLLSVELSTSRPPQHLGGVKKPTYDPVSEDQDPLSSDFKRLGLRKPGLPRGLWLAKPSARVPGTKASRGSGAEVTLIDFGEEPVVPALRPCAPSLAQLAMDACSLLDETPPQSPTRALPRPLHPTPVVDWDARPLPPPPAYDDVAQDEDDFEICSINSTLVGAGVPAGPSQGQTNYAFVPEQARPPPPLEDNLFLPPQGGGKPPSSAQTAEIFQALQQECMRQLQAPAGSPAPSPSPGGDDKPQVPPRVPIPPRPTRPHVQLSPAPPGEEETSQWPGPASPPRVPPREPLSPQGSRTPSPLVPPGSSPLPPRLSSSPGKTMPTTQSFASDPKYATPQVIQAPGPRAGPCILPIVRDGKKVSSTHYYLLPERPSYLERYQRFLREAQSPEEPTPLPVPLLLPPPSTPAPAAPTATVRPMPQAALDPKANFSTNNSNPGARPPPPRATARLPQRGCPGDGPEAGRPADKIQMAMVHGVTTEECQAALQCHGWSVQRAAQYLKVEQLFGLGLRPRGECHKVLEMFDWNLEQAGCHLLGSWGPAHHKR
pKd: −log10 of the molar value.

Example entries and their recorded answers appear below.
>  <compound>
Oc1ccc(-c2nc(-c3ccncc3)c(-c3ccc(F)cc3)[nH]2)cc1 [SB-202190]

>  <measurementLabel>
pKd

>  <testValue>
< 5.00

$$$$
>  <compound>
COCC(=O)NC/C=C/c1ccc2ncnc(Nc3ccc(Oc4ccc(C)nc4)c(C)c3)c2c1 [CP-724714]

>  <measurementLabel>
pKd

>  <testValue>
< 5.00

$$$$
>  <compound>
NC(=O)c1ccc(-c2nc(-c3ccc4c(c3)OCO4)c(-c3ccccn3)[nH]2)cc1 [SB-431542]

>  <measurementLabel>
pKd

>  <testValue>
< 5.00

$$$$

Query compound follows.
QUERY: Reported pKd, compound CCOc1cc2ncc(C#N)c(Nc3ccc(F)c(Cl)c3)c2cc1NC(=O)/C=C/CN(C)C [PELITINIB] : ____
RESULT: 5.28
